Source of measurements: patent US9290451B2

# TARGET_ENTITY: UniProt:P34972
# Sequence (P34972 whole entry): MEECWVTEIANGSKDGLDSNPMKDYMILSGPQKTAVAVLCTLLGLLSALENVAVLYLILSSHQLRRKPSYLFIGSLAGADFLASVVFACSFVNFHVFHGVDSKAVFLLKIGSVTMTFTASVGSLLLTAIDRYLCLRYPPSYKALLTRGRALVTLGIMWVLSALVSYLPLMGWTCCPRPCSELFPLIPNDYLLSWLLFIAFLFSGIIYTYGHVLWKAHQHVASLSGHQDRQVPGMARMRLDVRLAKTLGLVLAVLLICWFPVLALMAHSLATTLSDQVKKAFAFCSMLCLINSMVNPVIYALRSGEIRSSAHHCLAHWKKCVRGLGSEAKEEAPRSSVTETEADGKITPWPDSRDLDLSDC
# TEST_DESCRIPTION: cAMP assay, CHO cells expressing human CB2 receptors
# Format: cell-based
# EXPERIMENTAL_PARAMETERS: CHO cells expressing human CB2, cAMP; read-out: human CB2 EC50
pEC50: −log10 of the molar value.

{"COMPOUND": "CCC(CC)(NC(=O)c1ccc(C2CC2)c(OCC2CC2)n1)C(=O)NCCO", "pEC50": 8.28}
{"COMPOUND": "CC(C)(C)C(NC(=O)c1ccc(C2CC2)c(OCC2CC2)n1)C(N)=O (stereo not shown)", "pEC50": 8.42}
{"COMPOUND": "O=C(NN1CCCCC1)c1cccc(-c2ccc(Cl)cc2)n1", "pEC50": 6.54}
{"COMPOUND": "Cc1nc(C(C)(C)NC(=O)c2ccc(C3CC3)c(OC(C)C(F)(F)F)n2)no1 (stereo not shown)", "pEC50": 6.90}
{"COMPOUND": "CNC(=O)[C@H](CC(C)(C)C)NC(=O)c1ccc(C2CC2)c(OCC2CCOCC2)n1", "pEC50": 7.99}
{"COMPOUND": "O=C(NCc1ccccn1)c1ccc(N2CC(F)(F)C2)c(OCC2CC2)n1", "pEC50": 6.04}
{"COMPOUND": "O=C(N[C@@H](c1cccnc1)C(F)(F)F)c1ccc(C2CC2)c(OCC2CC2)n1", "pEC50": 7.39}
